B1: APBB1IP (parent)
chain: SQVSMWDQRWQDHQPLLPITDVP

Variants of: B1
Assay: protein stability index of a GFP-peptide fusion (GPS, HEK-293T) (PSI 1-6); higher = more stable;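 also: lentivirally expressed fusions sorted by FACS into six bins by GFP to DsRed ratio, PSI derived from sequencing read proportions per bin multiplied by bin number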
Settings: c terminus: native
Provide the recorded protein stability index for the entries that follow.
Give bare numbers.

Sample answers from the record:
>  <MUTANT NAME>
I19L

>  <protein stability index>
2.03

$$$$
>  <MUTANT NAME>
D7T

>  <protein stability index>
2.27

$$$$
>  <MUTANT NAME>
Q14M

>  <protein stability index>
2.15

$$$$
>  <MUTANT NAME>
S1M

>  <protein stability index>
1.96

$$$$
>  <MUTANT NAME>
W6M

>  <protein stability index>
2.65

$$$$

For every item below, please supply its protein stability index.
1. Q2D
2. Q2H

Result ::
3.38
2.23
